Assay: Measurement of log P values by HPLC on reversed phase columns (methods [a] pH 2.3, [b] pH 2.7, [c] pH 7.8)
Format: physicochemical
Conditions: HPLC reversed phase, method [b] (pH 2.7)
In this section we review reported logP values for a set of molecules.
readout label: logP

[[record]]
molecule = "O=C(NC1CCC1c1ccc(Cl)cc1Cl)c1ccccc1Br (stereo not drawn) [Example 471]"
result = "3.92^[b]"

[[record]]
molecule = "O=C(N[C@@H]1CC[C@@H]1c1ccc(Cl)cc1Cl)c1ncc(C(F)(F)F)cc1Cl (relative stereo) [Example 259]"
result = "4.23^[b]"

[[record]]
molecule = "O=C(N[C@@H]1CC[C@@H]1c1c(F)cccc1C(F)(F)F)c1ccc(Cl)cc1 (relative stereo) [Example 536]"
result = "3.72^[b]"

[[record]]
molecule = "O=C(N[C@@H]1C[C@@H]1c1ccc(Cl)cc1Cl)c1ccccc1Br (relative stereo) [Compound 579]"
result = "3.32^[b]"

[[record]]
molecule = "O=C(N[C@@H]1CC[C@@H]1c1ccc(F)cc1C(F)(F)F)c1ccc(Cl)cc1 (relative stereo) [Example 508]"
result = "3.62^[b]"

[[record]]
molecule = "O=C(N[C@@H]1CC[C@H]1c1ccccc1Cl)c1nccnc1Cl (relative stereo) [Compound 548]"
result = "2.81^[b]"


###

Experiment: Measurement of log P values by HPLC on reversed phase columns (methods [a] pH 2.3, [b] pH 2.7, [c] pH 7.8)
Assay type: physicochemical
Conditions: HPLC reversed phase, method [b] (pH 2.7)
readout label: logP

[[record]]
compound = "O=C(NC1CC1c1ccc(Cl)cc1)c1cccnc1C(F)F (stereo not shown)"
result = "2.15^[b]"

[[record]]
compound = "O=C(NC1CCCC1c1c(F)cccc1F)c1cccnc1C(F)(F)F (stereo not shown) [Example 362]"
result = "2.86^[b]"

[[record]]
compound = "O=C(NC1CCC1c1ccc(Cl)cc1Cl)c1ccccc1C(F)(F)F (stereo not shown) [Example 474]"
result = "4.02^[b]"

[[record]]
compound = "Cc1nc(C)c(C(=O)NC2CCCC2c2ccc(Cl)cc2)s1 (stereo not shown)"
result = "3.11^[b]"

[[record]]
compound = "O=C(NC1CCC1c1ccc(F)cc1C(F)(F)F)c1ncccc1Cl (stereo not shown) [Compound 478]"
result = "3.39^[b]"

[[record]]
compound = "O=C(N[C@@H]1CC[C@@H]1c1ccc(F)cc1C(F)(F)F)c1ccccc1Cl (relative stereo)"
result = "3.34^[b]"

[[record]]
compound = "O=C(NC1CCCC1c1ccccc1C(F)(F)F)c1ccccc1I (stereo not shown)"
result = "3.81^[b]"

[[record]]
compound = "O=C(NC1CC1c1ccc(Cl)cc1)c1cccnc1Cl (stereo not shown)"
result = "2.14^[b]"

[[record]]
compound = "O=C(NC1CCCC1c1ccccc1Cl)c1ccccc1I (stereo not shown)"
result = "3.51^[b]"

[[record]]
compound = "O=C(N[C@@H]1CC[C@@H]1c1cc(F)ccc1C(F)(F)F)c1ccc(Cl)cc1Cl (relative stereo)"
result = "3.85^[b]"


Origin of the recorded values: patent US20160075653A1
